The reported measurements were obtained from patent US11512053B2.

Target: UniProt:Q96LA8
Sequence (Q96LA8 with tags, fused parts or gaps): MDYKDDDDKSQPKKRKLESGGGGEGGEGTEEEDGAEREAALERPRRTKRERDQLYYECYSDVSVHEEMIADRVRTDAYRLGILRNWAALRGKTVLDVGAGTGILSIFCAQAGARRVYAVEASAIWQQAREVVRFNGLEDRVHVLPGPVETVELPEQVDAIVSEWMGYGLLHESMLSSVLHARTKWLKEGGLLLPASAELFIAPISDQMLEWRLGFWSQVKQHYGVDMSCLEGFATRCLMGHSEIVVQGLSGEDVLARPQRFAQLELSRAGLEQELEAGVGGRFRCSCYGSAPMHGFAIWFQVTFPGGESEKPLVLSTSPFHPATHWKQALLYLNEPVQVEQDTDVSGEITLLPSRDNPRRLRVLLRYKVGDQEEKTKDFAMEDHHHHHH
Experiment: PRMT6 Biochemical Assay (3H-SAM Flashplate, peptide substrate)
Conditions: read-out: Biochemical IC50 PRMT6
pIC50: −log10 of the molar value. Where a name gives a salt, the structure may show the parent alone.
Measured pIC50 accompanies every entry in the list below.

Reference set (3 entries):
CNCCN(C)Cc1c[nH]nc1C1CCC(C)(C)[C@@H](C(=O)NCC(C)C)C1 (some centres unmarked) | > 7.00
CNCCN(C)Cc1c[nH]nc1C1C[C@H](C(=O)N(C)CC(C)C)C(C)(C)[C@H](C(=O)N(C)CC(C)C)C1 (some centres unmarked) | 5.00 to 5.52
CNCCN(C)Cc1c[nH]nc1C1CCC(=O)N(Cc2ccc(C(F)(F)F)cc2)C1 (centres unmarked) | 6.00 to 7.00

compound CNCCN(C)Cc1c[nH]nc1C1CCC2(CC1)CNC(=O)C2 (centres unmarked) , pIC50 observed: > 7.00

compound CNCCN(C)Cc1c[nH]nc1C1CC(COC)C(C)(C)C(COC)C1 (centres unmarked) , pIC50 observed: 5.00 to 5.52

compound CNCCN(C)Cc1c[nH]nc1C1CCC(=O)N(Cc2ccccc2)C1 (centres unmarked) , pIC50 observed: > 7.00

compound CNCCN(C)Cc1cn(C)nc1[C@H]1CC[C@]2(CC1)CC(C)(C)CO2 [Compound 206, hydrochloride] , pIC50 observed: 6.00 to 7.00

compound CNCCN(C)Cc1c[nH]nc1C1CCC(=O)N(CCc2ccccc2)C1 (centres unmarked) , pIC50 observed: > 7.00

compound CCN(C(=O)CC1CCOCC1)[C@H]1CC[C@H](c2n[nH]cc2CN(C)CCNC)CC1 , pIC50 observed: > 7.00

====

Biological target: full-length human PRMT1 isoform 1 (GST-tagged) (Homo sapiens, UniProt Q99873)
Sequence (Q99873 with tags, fused parts or gaps): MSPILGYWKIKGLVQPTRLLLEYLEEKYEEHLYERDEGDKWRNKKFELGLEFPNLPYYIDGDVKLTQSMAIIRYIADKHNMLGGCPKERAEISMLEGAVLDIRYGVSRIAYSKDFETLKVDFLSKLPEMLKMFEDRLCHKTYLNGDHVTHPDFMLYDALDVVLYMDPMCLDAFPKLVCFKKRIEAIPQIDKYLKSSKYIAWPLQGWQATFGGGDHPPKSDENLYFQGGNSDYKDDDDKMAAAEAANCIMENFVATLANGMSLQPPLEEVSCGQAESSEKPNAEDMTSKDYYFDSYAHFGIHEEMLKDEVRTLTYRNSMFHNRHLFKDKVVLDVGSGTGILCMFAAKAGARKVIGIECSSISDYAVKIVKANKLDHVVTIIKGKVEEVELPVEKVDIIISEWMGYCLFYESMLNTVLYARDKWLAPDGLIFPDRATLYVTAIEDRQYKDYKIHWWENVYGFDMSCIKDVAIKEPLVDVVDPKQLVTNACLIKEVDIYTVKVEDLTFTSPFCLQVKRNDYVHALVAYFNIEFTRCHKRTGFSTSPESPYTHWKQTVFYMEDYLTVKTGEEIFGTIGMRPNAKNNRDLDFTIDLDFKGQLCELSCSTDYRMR
Test: PRMT1 Biochemical Assay (3H-SAM Flashplate, peptide substrate)
Conditions: single experiment or average of multiple experiments
pIC50: −log10 of the molar value.
ASSAY ENDPOINT: pIC50

Reference set (5 entries):
CNCCN(C)Cc1c[nH]nc1C1CCC2(CCOCC2)CC1 | 8.24
CNCCN(C)Cc1c[nH]nc1C1CCC2(CC1)CCN(C)C2=O (stereo not drawn) | 7.85
CNCCN(C)Cc1c[nH]nc1[C@H]1CC[C@@]2(CCOC2)CC1 | 7.97
CNCCN(C)Cc1c[nH]nc1[C@H]1CC[C@@H](N(CCCOC)C(=O)CCOc2ccccc2)CC1 | 7.90
CN(CCN)Cc1c[nH]nc1/C=C/Cc1ccccc1 | 7.70

a. CNCCN(C)Cc1c[nH]nc1[C@H]1CC[C@@H](N(CC(C)C)C(=O)CCOC)CC1
b. CNCCN(C)Cc1c[nH]nc1/C=C/c1ccc(C(F)(F)F)cc1
c. CNCCN(C)Cc1c[nH]nc1[C@H]1CC[C@H](N(CCOc2ccccc2)C(=O)CCCOC)CC1
d. CNCCN(C)Cc1c[nH]nc1[C@H]1CC[C@@]2(CCN(Cc3cc(F)cc(F)c3)C2=O)CC1
Rank by pIC50 (largest to smallest). Reply with the labels, ordered as the question asks.
d, c, a, b

====

Target: full-length human PRMT1 isoform 1 (GST-tagged) (Homo sapiens)
Assay: PRMT1 Biochemical Assay (3H-SAM Flashplate, peptide substrate)
Conditions: single experiment or average of multiple experiments
pIC50: −log10 of the molar value.
ASSAY ENDPOINT: pIC50

Reference set (5 entries):
CNCCN(C)Cc1c[nH]nc1[C@H]1CC[C@@H](C(=O)NCCOc2ccccc2)CC1 [Compound 212] | 8.25
CN(CCN)Cc1c[nH]nc1/C=C/c1cccc(F)c1 [Compound 20] | 7.70
CNCCN(C)Cc1c[nH]nc1[C@H]1CC[C@H](OCCOc2ccc(OCCOC)cc2)CC1 [Compound 116] | 8.01
CNCCN(C)Cc1c[nH]nc1/C=C/c1ccc(OC)cc1 [Compound 7] | 8.00
CNCCN(C)Cc1c[nH]nc1C1CCC(COC)CC1 (stereo not drawn) [Compound 53] | 7.98

I. CNCCN(C)Cc1c[nH]nc1C1CCC(C)(C)[C@H](C(=O)NCCOC)C1 (stereo partly drawn) [Compound 264]
II. CNCCN(C)Cc1c[nH]nc1C1CCC(C)(C)[C@H](C(=O)OC)C1 (stereo partly drawn) [Compound 256]
III. CCN(C(=O)CC1CCOCC1)[C@H]1CC[C@H](c2n[nH]cc2CN(C)CCNC)CC1 [Compound 195]
Rank by pIC50 (largest to smallest). Reply with the labels, ordered as the question asks.
III, II, I
